target: recombinant trimeric HA of A/Puerto Rico/8/1934 (H1N1) (influenza A virus A/Puerto Rico/8/1934 …, UniProt P03452); assay: cell-based or functional assay
Sequence (P03452 18-528): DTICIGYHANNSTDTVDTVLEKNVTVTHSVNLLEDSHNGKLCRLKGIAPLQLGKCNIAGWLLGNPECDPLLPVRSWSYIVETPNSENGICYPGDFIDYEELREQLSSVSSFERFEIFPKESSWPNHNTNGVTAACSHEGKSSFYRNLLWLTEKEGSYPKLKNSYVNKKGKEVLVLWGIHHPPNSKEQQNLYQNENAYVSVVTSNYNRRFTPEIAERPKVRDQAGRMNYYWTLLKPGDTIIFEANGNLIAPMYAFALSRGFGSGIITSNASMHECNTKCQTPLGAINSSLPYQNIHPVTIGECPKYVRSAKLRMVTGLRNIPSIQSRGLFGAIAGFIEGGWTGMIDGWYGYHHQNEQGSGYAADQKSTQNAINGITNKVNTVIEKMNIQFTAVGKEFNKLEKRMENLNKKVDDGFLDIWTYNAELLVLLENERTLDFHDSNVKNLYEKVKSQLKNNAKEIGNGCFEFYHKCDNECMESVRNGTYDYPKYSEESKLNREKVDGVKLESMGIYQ
value.kind: NI activity, EC50 (NI-ELLA), PR8 virus (µg/mL)

binder: F11 IgA1 monomer (antibody, V domains shown) VH: QVQLVQSGAEVKRPGSSVRVSCRTSGGSFTSFAISWVRQAPGQGLEWMGRITRILGVPNYAQKFQGRVTITADMPTTTAYLDLTNLRSEDTAVYYCARDSGTSHGDFDYWGQGTLVTVSS VL: EIVLTQSPVTLSLSPGERATLSCRASQNVINSLVWYQQKPGQAPRLLIYGASNRATGIPARFRGSGSGTDFTLTIDSLEPEDIAVYYCQQRGTWLWSFGQGTKVEIK
units.label: µg/mL
quantitative.result: 0.301
